assay overview: activity coefficient (dimensionless); of the first substance listed, at infinite dilution; xn = mol fraction of the nth substance listed
particulars: 353.15 K; 101 kPa; Liquid; Chromatography; x1 = 0
measure name: activity coefficient

Reference set (2 entries):
>  <compound>
C=Cc1ccccc1 [styrene] + CCCCn1cc[n+](C)c1.O=S(=O)([O-])C(F)(F)F

>  <activity coefficient>
2.54

$$$$
>  <compound>
CCCCC [pentane] + CCCCn1cc[n+](C)c1.O=S(=O)([O-])C(F)(F)F

>  <activity coefficient>
21.2

$$$$

[A] CCCCCC [hexane] + CCCCn1cc[n+](C)c1.O=S(=O)([O-])C(F)(F)F
[B] CCc1ccccc1 [ethylbenzene] + CCCCn1cc[n+](C)c1.O=S(=O)([O-])C(F)(F)F
[C] CCCCCCCCC [nonane] + CCCCn1cc[n+](C)c1.O=S(=O)([O-])C(F)(F)F
[D] C1CCCCC1 [cyclohexane] + CCCCn1cc[n+](C)c1.O=S(=O)([O-])C(F)(F)F
Task item: Hey, quick one: sort these by activity coefficient, largest value first please. Reply: labels, ordered per the request.
Reply: C, A, D, B
